The reported measurements were obtained from the Kinase Knowledgebase extract (Sharma et al. 2016).

Target: UniProt:Q16539
Sequence (Q16539 whole entry, looked up): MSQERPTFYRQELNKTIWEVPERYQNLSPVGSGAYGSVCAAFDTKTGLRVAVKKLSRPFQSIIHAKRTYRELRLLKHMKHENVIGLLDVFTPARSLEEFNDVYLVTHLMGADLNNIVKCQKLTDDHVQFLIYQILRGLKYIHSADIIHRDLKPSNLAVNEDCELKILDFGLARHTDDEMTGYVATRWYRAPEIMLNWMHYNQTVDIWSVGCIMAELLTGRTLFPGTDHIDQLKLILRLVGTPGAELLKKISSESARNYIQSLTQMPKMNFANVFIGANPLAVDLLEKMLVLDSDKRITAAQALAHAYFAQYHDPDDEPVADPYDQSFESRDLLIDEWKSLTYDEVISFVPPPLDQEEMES
Experiment: Inhibition of p38 MAP Kinase in Whole Blood
Reported IC50 values are given for each entry in this list.
Please state the figure in nM; there is no need to write the unit.

Examples with their reported IC50 follow.
> print(dat)
                                   compound  endpoint.label  measured
1  O=C1NCc2nc(Sc3ccc(F)cc3F)c(N3CC4CC3CN4CC3CC3)cc2N1c1c(Cl)cccc1Cl (centres undefined)            IC50        51
2  CCN1CC2CC1CN2c1cc2c(nc1Sc1ccc(F)cc1F)CNC(=O)N2c1c(Cl)cccc1Cl (centres undefined)            IC50        42
3  O=C1NCc2nc(Sc3ccc(F)cc3F)c(N3CC4CC3CN4)cc2N1c1c(Cl)cccc1Cl (centres undefined)            IC50      11.2
4  O=C1NCc2nc(Sc3ccc(F)cc3F)c(N3CCC(CCN4CCCC4)CC3)cc2N1c1c(Cl)cccc1Cl            IC50       940
5  O=C1NCc2nc(Sc3ccc(F)cc3F)c(N3CCN(CCN4CCCC4)CC3)cc2N1c1c(Cl)cccc1Cl            IC50         9
6  O=C1NCc2nc(Sc3ccc(F)cc3F)c(N3CC4CC3CN4C3CC3)cc2N1c1c(Cl)cccc1Cl (centres undefined)            IC50       220
7  CC1CN(c2cc3c(nc2Sc2ccc(F)cc2F)CNC(=O)N3c2c(Cl)cccc2Cl)CC(C)O1 (centres undefined)            IC50        72
8  O=C1NCc2nc(Sc3ccc(F)cc3F)c(NC3CCNCC3)cc2N1c1c(Cl)cccc1Cl            IC50        17

Kindly review the next compound as well.
Given item `CN(C)CCN1CCN(c2cc3c(nc2Sc2ccc(F)cc2F)CNC(=O)N3c2c(Cl)cccc2Cl)CC1` , the value recorded as its IC50 is 14
